Reference for the values: ChEMBL document CHEMBL3271963

Can you tell me Drug metabolism for the items I'm about to list?
System: Liver
experiment_notes: Drug metabolism in iv dosed Swiss-Webster mouse liver assessed as norme-peridine concentration measured per gram of tissue over 5 to 45 mins
Assay type: ADME, organism-based
condition_description: in vivo
Express the result in nmol·min but write the number alone.

-- ask Short answer please: Drug metabolism, Liver, entry "CCCCN1CCC(C(=O)OCC)(c2ccccc2)CC1.Cl"
-- reply 121.7

-- ask Would you mind doing "CCCN1CCC(C(=O)OCC)(c2ccccc2)CC1.Cl" as well?
-- reply 917.7

-- ask Would you mind doing CCOC(=O)C1(c2ccccc2)CCN(C)CC1.Cl [MEPERIDINE HYDROCHLORIDE] as well?
-- reply 1733.1

-- ask Would you mind doing "CCCCCCN1CCC(C(=O)OCC)(c2ccccc2)CC1.Cl" as well?
-- reply 17.9
